Where do these numbers come from? They come from the supplement of paper PMC10126150.

Form field: switch fluorescence ratio (one value per entry).
tested on: ATP; assay: switch fluorescence ratio, 500 uM ATP over buffer (Cy3 cluster intensity, sum of 5 cycles each) (fold (ratio)); higher = stronger signal-on switching upon ATP binding; sequences stand for … in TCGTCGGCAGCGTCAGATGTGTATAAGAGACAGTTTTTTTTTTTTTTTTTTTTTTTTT…TC; conditions: aptamer strand: ATP DNA aptamer (quencher-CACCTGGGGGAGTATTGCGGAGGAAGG + anchor), 100 nM annealed; ATP concentration: 500 uM;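 note: ATP exposure 15 min at 22 °C before imaging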
Please give only the number in your answer, with no unit.

SEQUENCE STRING: ATGGATTGGT
ASSAYED SYSTEM: ATP;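 note: ATP exposure 15 min at 22 °C before imaging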
switch fluorescence ratio: 0.984
--
SEQUENCE STRING: TCGGAATTGT
ASSAYED SYSTEM: ATP;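 note: ATP exposure 15 min at 22 °C before imaging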
switch fluorescence ratio: 0.999
--
SEQUENCE STRING: TATAAAATGT
ASSAYED SYSTEM: ATP;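 note: ATP exposure 15 min at 22 °C before imaging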
switch fluorescence ratio: 0.993
--
SEQUENCE STRING: ATGATGGATT
ASSAYED SYSTEM: ATP;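 note: ATP exposure 15 min at 22 °C before imaging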
switch fluorescence ratio: 1.01
--
SEQUENCE STRING: AATAGGGAGC
ASSAYED SYSTEM: ATP;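 note: ATP exposure 15 min at 22 °C before imaging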
switch fluorescence ratio: 0.997

Measured switch fluorescence ratio, GCTCGCCTTA : 0.999

Measured switch fluorescence ratio, GGGAATAGCT : 0.999

Measured switch fluorescence ratio, GCCGACGGTG : 1
